All values here come from PubChem BioAssay AID1963851.

# Tested on: 188146-221-R-J1-PDC complex spheroid viability;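 further: spheroids exposed to compounds for seven days; 100% = DMSO vehicle control viability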
# test description: Anticancer human tumor 188146-221-R-J1-PDC patient-derived colon adenocarcinoma cell line growth inhibition [POLQ]
# measurement parameters: second compound 0.316 µM; first compound 3.16 µM; stronger effect = lower value
quantity: viability, T/C (%)

- CC1COCCN1c1cc(C2(S(C)(=N)=O)CC2)nc(-c2ccnc3[nH]ccc23)n1 (stereo not given) + Nc1ccc(C#CCN(C(=O)Cc2ncc(C(F)(F)F)cc2C(F)(F)F)c2ccc(F)cc2)nn1: 61.9
- CCc1cc2c(N3CCc4c(cc(Cn5ccnc5)cc4-c4cn(C)nc4C(F)(F)F)C3=O)cc(C)nc2c(OC)n1 + Cc1cccc(N(C)C(=O)C2C(O)CCN2c2nc(C)cc(C(F)(F)F)c2C#N)c1: 67
- C=CC(=O)N1CCN(c2nc(=O)n(-c3c(C)ccnc3C(C)C)c3nc(-c4c(O)cccc4F)c(F)cc23)C(C)C1 (stereo not given) + COC1C(OC(N)=O)C(O)C(Oc2ccc3c(O)c(NC(=O)c4ccc(O)c(CC=C(C)C)c4)c(=O)oc3c2C)OC1(C)C: 95.3
- COc1cc(C2c3cc4c(cc3C(OC3OC5COC(C)OC5C(O)C3O)C3COC(=O)C23)OCO4)cc(OC)c1O (stereo not given) + Nc1ccc(C#CCN(C(=O)Cc2ncc(C(F)(F)F)cc2C(F)(F)F)c2ccc(F)cc2)nn1: 25
- O=C(c1cc(Cc2n[nH]c(=O)c3ccccc23)ccc1F)N1CCN(C(=O)C2CC2)CC1 + Cc1cccc(N(C)C(=O)C2C(O)CCN2c2nc(C)cc(C(F)(F)F)c2C#N)c1: 90.2
